Below is a list of entries, each paired with its recorded MFI value.
molecular target: mouse DLL3 on CHO-K1-mDLL3 cells (mouse) (UniProt O88516); test: FACS, CHO-K1-mDLL3 cells, 20 nM antibody
Sequence (O88516 other isoform, or with tags, fused parts or gaps limits assumed): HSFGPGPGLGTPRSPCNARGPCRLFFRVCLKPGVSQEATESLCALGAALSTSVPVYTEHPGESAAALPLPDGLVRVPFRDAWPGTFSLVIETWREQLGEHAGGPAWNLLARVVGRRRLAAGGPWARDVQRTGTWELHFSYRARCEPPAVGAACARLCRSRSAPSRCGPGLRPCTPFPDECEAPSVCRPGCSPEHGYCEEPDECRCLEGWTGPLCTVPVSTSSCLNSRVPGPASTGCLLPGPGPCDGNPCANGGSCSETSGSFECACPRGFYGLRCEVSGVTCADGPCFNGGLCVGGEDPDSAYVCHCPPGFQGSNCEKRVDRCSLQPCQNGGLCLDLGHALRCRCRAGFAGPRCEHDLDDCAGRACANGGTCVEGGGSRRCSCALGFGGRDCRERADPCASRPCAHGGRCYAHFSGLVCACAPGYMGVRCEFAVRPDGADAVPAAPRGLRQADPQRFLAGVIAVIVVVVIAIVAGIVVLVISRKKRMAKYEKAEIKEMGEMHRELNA
reportedMetric: MFI (MFI)

1. Hab015VL4VH1a-hFc (scFv, part only; not given: scFv linker and human IgG1 Fc, V domains shown, not shown: another chain or arm of the molecule; a dimerising Fc or GST; small tags and cut ends) VL: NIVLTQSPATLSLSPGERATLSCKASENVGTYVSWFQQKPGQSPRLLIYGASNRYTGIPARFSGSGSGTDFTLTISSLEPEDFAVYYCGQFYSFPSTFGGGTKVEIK VH: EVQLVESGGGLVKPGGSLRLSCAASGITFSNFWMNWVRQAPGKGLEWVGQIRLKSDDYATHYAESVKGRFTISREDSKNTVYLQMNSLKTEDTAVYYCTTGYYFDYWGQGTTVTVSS = 1150
2. Hab015VL5VH1a-hFc (scFv, part only; not given: scFv linker and human IgG1 Fc, V domains shown, not shown: another chain or arm of the molecule; a dimerising Fc or GST; small tags and cut ends) VL: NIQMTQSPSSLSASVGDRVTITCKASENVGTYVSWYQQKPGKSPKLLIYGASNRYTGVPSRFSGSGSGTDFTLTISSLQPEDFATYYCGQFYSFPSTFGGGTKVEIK VH: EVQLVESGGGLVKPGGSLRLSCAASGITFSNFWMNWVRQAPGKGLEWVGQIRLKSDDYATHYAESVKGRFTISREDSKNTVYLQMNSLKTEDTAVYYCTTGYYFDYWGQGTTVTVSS = 1290
3. Hab009VL3aVH1-hFc (scFv, part only; not given: VL-VH linker and human IgG1 Fc, V domains shown, not shown: another chain or arm of the molecule; a dimerising Fc or GST; small tags and cut ends) VL: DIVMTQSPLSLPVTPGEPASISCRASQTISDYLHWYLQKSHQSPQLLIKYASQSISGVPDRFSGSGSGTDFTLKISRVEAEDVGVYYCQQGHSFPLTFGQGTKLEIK VH: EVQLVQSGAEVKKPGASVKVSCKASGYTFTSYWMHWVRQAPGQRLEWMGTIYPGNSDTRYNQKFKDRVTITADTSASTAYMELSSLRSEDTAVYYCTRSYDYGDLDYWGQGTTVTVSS = 491
4. Hab006VL4VH1-hFc (scFv, part only; not given: scFv linker and human IgG1 Fc, V domains shown, not shown: another chain or arm of the molecule; a dimerising Fc or GST; small tags and cut ends) VL: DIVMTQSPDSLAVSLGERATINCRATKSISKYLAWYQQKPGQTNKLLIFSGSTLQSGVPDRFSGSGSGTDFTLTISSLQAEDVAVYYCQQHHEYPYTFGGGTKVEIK VH: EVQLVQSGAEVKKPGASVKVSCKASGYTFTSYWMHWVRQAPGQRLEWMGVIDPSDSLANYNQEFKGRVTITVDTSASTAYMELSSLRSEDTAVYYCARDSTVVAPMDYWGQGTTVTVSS = 523
5. Hab015VL5VH6a-hFc (scFv, part only; not given: scFv linker and human IgG1 Fc, V domains shown, not shown: another chain or arm of the molecule; a dimerising Fc or GST; small tags and cut ends) VL: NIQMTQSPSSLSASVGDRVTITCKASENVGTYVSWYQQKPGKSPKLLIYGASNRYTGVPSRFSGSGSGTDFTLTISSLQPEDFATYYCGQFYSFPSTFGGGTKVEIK VH: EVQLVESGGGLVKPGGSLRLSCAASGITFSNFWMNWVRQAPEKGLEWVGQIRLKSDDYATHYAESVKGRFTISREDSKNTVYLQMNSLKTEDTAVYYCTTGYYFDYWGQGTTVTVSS = 1410
